B1: library; a variant is named by its letters at N, in order (parent)
chain: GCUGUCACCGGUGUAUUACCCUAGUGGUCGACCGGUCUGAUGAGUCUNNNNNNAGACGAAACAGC

Variants of: B1
TEST_SUMMARY: FACS-Seq fitted mean relative fluorescence mCherry/BFP without ligand (log10 relative fluorescence); ligand: hypoxanthine (xanthine aptamer); higher = higher reporter protein expression
STATED_CONDITIONS: HEK293T, ligand present: no
MEASURED_PARAMETER: FACS-Seq fitted mean (log10)
Lab note: jot the number down without any unit.

The cases that follow already have their FACS-Seq fitted mean (log10) on record.
{"VARIANT_CODE": "GGGUGC", "DATA_VALUE": 0.296}
{"VARIANT_CODE": "GUAGUG", "DATA_VALUE": 0.125}
{"VARIANT_CODE": "AGCGAA", "DATA_VALUE": 0.534}
{"VARIANT_CODE": "UGGAUG", "DATA_VALUE": 0.445}
{"VARIANT_CODE": "UCUGGC", "DATA_VALUE": 0.393}

Task item: Look up FACS-Seq fitted mean (log10): `ACGCAU`
Reply: 0.321

Task item: Look up FACS-Seq fitted mean (log10): `ACGGGC`
Reply: 0.13

Task item: Look up FACS-Seq fitted mean (log10): `GCUUUC`
Reply: 0.909

Task item: Look up FACS-Seq fitted mean (log10): `GAGUGA`
Reply: 0.22

Task item: Look up FACS-Seq fitted mean (log10): `CGAGUU`
Reply: 0.866

Task item: Look up FACS-Seq fitted mean (log10): `AUUCCU`
Reply: 0.507

Task item: Look up FACS-Seq fitted mean (log10): `ACUUCG`
Reply: 0.592

Task item: Look up FACS-Seq fitted mean (log10): `ACGUAA`
Reply: 0.16

Task item: Look up FACS-Seq fitted mean (log10): `AACAUA`
Reply: 0.665

Task item: Look up FACS-Seq fitted mean (log10): `UGAUGA`
Reply: 0.599

These entries and their values trace back to the supplement of paper PMC6757056.
